System: winter wheat (Vershin variety)
assayOverview: Winter wheat seed treatment with BHMPA salts: germinating power (length and mass of roots and sprouts)
Type: in vivo
measurementConditions: 1·10^−6% solution
Overview of recorded Mass, dry, sprout, + % to control for various compounds
measuredMetric: Mass, dry, sprout, + % to control

- compound: "O=P([O-])(CO)CO.O=P([O-])(CO)CO.[Zn+2] [Zn-salt, Zinc BHMPA Salt]"
  result: "−4%"
- compound: "O=P([O-])(CO)CO.O=P([O-])(CO)CO.[Mg+2] [Mg-salt, Magnesium BHMPA Salt]"
  result: "−15%"
- compound: "O.O.O=P([O-])(CO)CO.O=P([O-])(CO)CO.[Mn+2] [Mn-salt, Manganese BHMPA Salt]"
  result: "−10%"
- compound: "O=P([O-])(CO)CO.O=P([O-])(CO)CO.[Ca+2] [Ca-salt, Calcium BHMPA Salt]"
  result: "9%"
- compound: "O=P([O-])(CO)CO.[Na+] [Na-salt, Sodium BHMPA Salt]"
  result: "−3.6%"
- compound: "O.O.O=P([O-])(CO)CO.O=P([O-])(CO)CO.[Co+2] [Co-salt, Cobalt BHMPA Salt]"
  result: "−9%"

====

Overview of recorded Mass, wet, root, + % to control for various molecules
Test system: rice (Diamant variety)
assayOverview: Rice seed treatment with BHMPA salts: germinating power
Type: in vivo
measurementConditions: rice seeds; solution concentration 1 · 10^−10%
measuredMetric: Mass, wet, root, + % to control (%)

- molecule: "O.O.O=P([O-])(CO)CO.O=P([O-])(CO)CO.[Mn+2] [Mn-salt, Manganese BHMPA Salt]"
  measuredMetric: "Mass, wet, root, + % to control"
  numericResult: 36
- molecule: "O=P([O-])(CO)CO.O=P([O-])(CO)CO.[Ca+2] [Ca-salt, Calcium BHMPA Salt]"
  measuredMetric: "Mass, wet, root, + % to control"
  numericResult: 32
- molecule: "O.O.O=P([O-])(CO)CO.O=P([O-])(CO)CO.[Co+2] [Co-salt, Cobalt BHMPA Salt]"
  measuredMetric: "Mass, wet, root, + % to control"
  numericResult: 26
- molecule: "O=P([O-])(CO)CO.[Na+] [Na-salt, Sodium BHMPA Salt]"
  measuredMetric: "Mass, wet, root, + % to control"
  numericResult: 38
- molecule: "O=P([O-])(CO)CO.O=P([O-])(CO)CO.[Mg+2] [Mg-salt, Magnesium BHMPA Salt]"
  measuredMetric: "Mass, wet, root, + % to control"
  numericResult: 63

====

System: corn (Krasnodar 385 MV variety)
assayOverview: Corn seed treatment with BHMPA salts: germination energy and germination rate
Type: in vivo
measurementConditions: 1·10^−12% solution
Decision: Germination energy >= 80% yields label 1, all other cases yield label 0.

- compound: "O=P([O-])(CO)CO.O=P([O-])(CO)CO.[Mg+2] [Mg-salt, Magnesium BHMPA Salt]"
  targetOrSystem: "corn (Krasnodar 385 MV variety)"
  category: "label 1"
- compound: "O.O.O=P([O-])(CO)CO.O=P([O-])(CO)CO.[Co+2] [Co-salt, Cobalt BHMPA Salt]"
  targetOrSystem: "corn (Krasnodar 385 MV variety)"
  category: "label 0"

====

Overview of recorded Germination rate for various molecules
System: rice (Diamant variety)
assayOverview: Rice seed treatment with BHMPA salts: germination energy and germination rate
Format: in vivo
measurementConditions: seed treatment; concentration 1 · 10^−6%
measuredMetric: Germination rate (%)

- molecule: "O=P([O-])(CO)CO.[Na+] [Na-salt, Sodium BHMPA Salt]"
  numericResult: 80.3
- molecule: "O.O.O=P([O-])(CO)CO.O=P([O-])(CO)CO.[Co+2] [Co-salt, Cobalt BHMPA Salt]"
  numericResult: 84.0
- molecule: "O.O.O=P([O-])(CO)CO.O=P([O-])(CO)CO.[Mn+2] [Mn-salt, Manganese BHMPA Salt]"
  numericResult: 82.7
- molecule: "O=P([O-])(CO)CO.O=P([O-])(CO)CO.[Mg+2] [Mg-salt, Magnesium BHMPA Salt]"
  numericResult: 83.3
- molecule: "O=P([O-])(CO)CO.O=P([O-])(CO)CO.[Ca+2] [Ca-salt, Calcium BHMPA Salt]"
  numericResult: 81.0

====

System: winter wheat (Vershin variety)
assayOverview: Winter wheat seed treatment with BHMPA salts: germination energy and germination rate
Type: in vivo
measurementConditions: winter wheat Vershin; 1·10^−8% solution
Output T for records whose Germination energy is lower than 90%, F for records at or above 90%.

- compound: "O.O.O=P([O-])(CO)CO.O=P([O-])(CO)CO.[Mn+2] [Mn-salt, Manganese BHMPA Salt]"
  category: "T"
- compound: "O=P([O-])(CO)CO.O=P([O-])(CO)CO.[Zn+2] [Zn-salt, Zinc BHMPA Salt]"
  category: "F"
- compound: "O=P([O-])(CO)CO.O=P([O-])(CO)CO.[Ca+2] [Ca-salt, Calcium BHMPA Salt]"
  category: "T"
- compound: "O.O.O=P([O-])(CO)CO.O=P([O-])(CO)CO.[Co+2] [Co-salt, Cobalt BHMPA Salt]"
  category: "F"

====

Overview of recorded Length, root, + % to control for various compounds
System: winter wheat (Vershin variety)
assayOverview: Winter wheat seed treatment with BHMPA salts: germinating power (length and mass of roots and sprouts)
Assay type: in vivo
measurementConditions: 1·10^−6% solution

- compound: "O.O.O=P([O-])(CO)CO.O=P([O-])(CO)CO.[Mn+2] [Mn-salt, Manganese BHMPA Salt]"
  targetOrSystem: "winter wheat (Vershin variety)"
  Length, root, + % to control [%]: "−7"
- compound: "O=P([O-])(CO)CO.O=P([O-])(CO)CO.[Ca+2] [Ca-salt, Calcium BHMPA Salt]"
  targetOrSystem: "winter wheat (Vershin variety)"
  Length, root, + % to control [%]: 27
- compound: "O.O.O=P([O-])(CO)CO.O=P([O-])(CO)CO.[Co+2] [Co-salt, Cobalt BHMPA Salt]"
  targetOrSystem: "winter wheat (Vershin variety)"
  Length, root, + % to control [%]: "−5"
- compound: "O=P([O-])(CO)CO.O=P([O-])(CO)CO.[Mg+2] [Mg-salt, Magnesium BHMPA Salt]"
  targetOrSystem: "winter wheat (Vershin variety)"
  Length, root, + % to control [%]: "−1"
- compound: "O=P([O-])(CO)CO.O=P([O-])(CO)CO.[Zn+2] [Zn-salt, Zinc BHMPA Salt]"
  targetOrSystem: "winter wheat (Vershin variety)"
  Length, root, + % to control [%]: "−6"
- compound: "O=P([O-])(CO)CO.[Na+] [Na-salt, Sodium BHMPA Salt]"
  targetOrSystem: "winter wheat (Vershin variety)"
  Length, root, + % to control [%]: "−5.7"

====

Tested on: corn (Krasnodar 385 MV variety)
assayOverview: Corn seed treatment with BHMPA salts: germination energy and germination rate
Format: in vivo
measurementConditions: 1·10^−6% solution
Overview of recorded Germination energy for various compounds

- compound: "O=P([O-])(CO)CO.O=P([O-])(CO)CO.[Zn+2] [Zn-salt, Zinc BHMPA Salt]"
  targetOrSystem: "corn (Krasnodar 385 MV variety)"
  Germination energy / %: 77.7
- compound: "O=P([O-])(CO)CO.[Na+] [Na-salt, Sodium BHMPA Salt]"
  targetOrSystem: "corn (Krasnodar 385 MV variety)"
  Germination energy / %: 75.7
- compound: "O=P([O-])(CO)CO.O=P([O-])(CO)CO.[Ca+2] [Ca-salt, Calcium BHMPA Salt]"
  targetOrSystem: "corn (Krasnodar 385 MV variety)"
  Germination energy / %: 74.3
- compound: "O.O.O=P([O-])(CO)CO.O=P([O-])(CO)CO.[Mn+2] [Mn-salt, Manganese BHMPA Salt]"
  targetOrSystem: "corn (Krasnodar 385 MV variety)"
  Germination energy / %: 81.0
- compound: "O.O.O=P([O-])(CO)CO.O=P([O-])(CO)CO.[Co+2] [Co-salt, Cobalt BHMPA Salt]"
  targetOrSystem: "corn (Krasnodar 385 MV variety)"
  Germination energy / %: 80.0
- compound: "O=P([O-])(CO)CO.O=P([O-])(CO)CO.[Mg+2] [Mg-salt, Magnesium BHMPA Salt]"
  targetOrSystem: "corn (Krasnodar 385 MV variety)"
  Germination energy / %: 82.3

====

Tested on: winter wheat (Vershin variety)
assayOverview: Winter wheat seed treatment with BHMPA salts: germination energy and germination rate
Assay type: in vivo
measurementConditions: winter wheat Vershin; 1·10^−10% solution

- compound: "O=P([O-])(CO)CO.[Na+] [Na-salt, Sodium BHMPA Salt]"
  unitInfo: "%"
  Germination rate: 92.0
- compound: "O=P([O-])(CO)CO.O=P([O-])(CO)CO.[Zn+2] [Zn-salt, Zinc BHMPA Salt]"
  unitInfo: "%"
  Germination rate: 97.3
- compound: "O=P([O-])(CO)CO.O=P([O-])(CO)CO.[Ca+2] [Ca-salt, Calcium BHMPA Salt]"
  unitInfo: "%"
  Germination rate: 88.0
- compound: "O.O.O=P([O-])(CO)CO.O=P([O-])(CO)CO.[Co+2] [Co-salt, Cobalt BHMPA Salt]"
  unitInfo: "%"
  Germination rate: 98.7
- compound: "O.O.O=P([O-])(CO)CO.O=P([O-])(CO)CO.[Mn+2] [Mn-salt, Manganese BHMPA Salt]"
  unitInfo: "%"
  Germination rate: 85.3
- compound: "O=P([O-])(CO)CO.O=P([O-])(CO)CO.[Mg+2] [Mg-salt, Magnesium BHMPA Salt]"
  unitInfo: "%"
  Germination rate: 93.3
